- experimental.target: Full length USP8 (USP8FL) (Homo sapiens, UniProt P40818)
- Construct: purchased BostonBiochem E-520
- assay.procedure: USP8FL (full length USP8) enzymatic inhibition, Ub-Rhodamine 110 hydrolysis in L-cysteine buffer
- Assay type: biochemical
- run.parameters: USP8 FL 75 nM, Ub-Rho 0.1 μM, L-cysteine buffer; read-out: USP8FL inhbition IC50 [μM] (CI: Confidence Interval)

{"columns": ["compound", "experimental.target", "u", "value.operator", "IC50"],
 "data": [
  ["Cc1ccc(NC(=O)Cn2ccccc2=O)c(OCc2ccccc2)c1 [Z738998144]", "Full length USP8 (USP8FL) (Homo sapiens, UniProt P40818)", "µM", ">", 40],
  ["O=C(Nc1cc(Cl)cc(Cl)c1O)c1c(O)c(Cl)cc(Cl)c1Cl [Oxyclozanide, reference compound]", "Full length USP8 (USP8FL) (Homo sapiens, UniProt P40818)", "µM", "=", 7.68],
  ["O=C(Nc1ccc([N+](=O)[O-])cc1Cl)c1cc(Cl)ccc1O [Niclosamide, reference compound]", "Full length USP8 (USP8FL) (Homo sapiens, UniProt P40818)", "µM", "=", 61],
  ["O=C(Nc1cc(Cl)cc(Cl)c1)c1cc(I)cc(I)c1O [Amb8477462]", "Full length USP8 (USP8FL) (Homo sapiens, UniProt P40818)", "µM", "=", 8.98],
  ["O=C(Nc1cc(Cl)ccc1Cl)c1cc(I)cc(I)c1O [Amb8477378]", "Full length USP8 (USP8FL) (Homo sapiens, UniProt P40818)", "µM", "=", 13],
  ["O=C(Nc1ccc(O)cc1)c1cc(I)ccc1O [Z69118571]", "Full length USP8 (USP8FL) (Homo sapiens, UniProt P40818)", "µM", ">", 100],
  ["Cc1ccc(C(=O)c2cc(NC(=O)c3cc(I)cc(I)c3O)ccc2Cl)cc1 [Amb4103735]", "Full length USP8 (USP8FL) (Homo sapiens, UniProt P40818)", "µM", "=", 3.41],
  ["O=C(Nc1ccc(Cl)cc1C(=O)c1ccccc1F)c1ccc(=O)[nH]c1 [Z220328740]", "Full length USP8 (USP8FL) (Homo sapiens, UniProt P40818)", "µM", ">", 40],
  ["Cc1ccc(NC(=O)c2cc(I)cc(I)c2O)cc1 [Amb8477380]", "Full length USP8 (USP8FL) (Homo sapiens, UniProt P40818)", "µM", "=", 14.6]
]}

====

- experimental.target: Full length USP8 (USP8FL) (Homo sapiens)
- Construct: purchased BostonBiochem E-520
- Sequence (P40818 1-1118): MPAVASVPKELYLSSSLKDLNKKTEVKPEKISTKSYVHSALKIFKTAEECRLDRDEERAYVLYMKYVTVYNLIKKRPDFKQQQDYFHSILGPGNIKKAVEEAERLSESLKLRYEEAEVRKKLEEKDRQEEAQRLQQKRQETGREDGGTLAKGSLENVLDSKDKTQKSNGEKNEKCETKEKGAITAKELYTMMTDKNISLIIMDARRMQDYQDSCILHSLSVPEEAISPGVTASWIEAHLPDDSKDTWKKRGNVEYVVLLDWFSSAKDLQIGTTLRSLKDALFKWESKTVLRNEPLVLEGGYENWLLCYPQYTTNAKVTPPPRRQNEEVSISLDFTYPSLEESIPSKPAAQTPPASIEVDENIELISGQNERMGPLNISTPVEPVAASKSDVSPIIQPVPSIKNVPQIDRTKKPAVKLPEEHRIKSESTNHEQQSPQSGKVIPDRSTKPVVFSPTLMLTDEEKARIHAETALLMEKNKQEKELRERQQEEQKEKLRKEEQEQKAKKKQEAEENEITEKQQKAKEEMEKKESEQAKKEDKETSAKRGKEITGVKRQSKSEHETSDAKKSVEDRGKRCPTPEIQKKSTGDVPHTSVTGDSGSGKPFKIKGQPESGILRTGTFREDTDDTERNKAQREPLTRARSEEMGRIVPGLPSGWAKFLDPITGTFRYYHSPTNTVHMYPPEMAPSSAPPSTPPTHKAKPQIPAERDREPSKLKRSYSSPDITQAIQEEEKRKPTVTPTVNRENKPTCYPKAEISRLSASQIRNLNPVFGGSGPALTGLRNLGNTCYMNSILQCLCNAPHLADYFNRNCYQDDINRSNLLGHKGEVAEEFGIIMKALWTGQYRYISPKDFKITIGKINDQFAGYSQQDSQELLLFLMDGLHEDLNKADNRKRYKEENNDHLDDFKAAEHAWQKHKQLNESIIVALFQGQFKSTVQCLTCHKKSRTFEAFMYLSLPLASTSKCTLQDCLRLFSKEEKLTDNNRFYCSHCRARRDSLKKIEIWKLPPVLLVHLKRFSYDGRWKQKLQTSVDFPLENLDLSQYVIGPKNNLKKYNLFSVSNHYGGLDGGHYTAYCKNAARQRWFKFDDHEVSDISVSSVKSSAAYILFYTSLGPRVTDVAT
- assay.procedure: USP8FL (full length USP8) enzymatic inhibition, Ub-Rhodamine 110 hydrolysis in L-cysteine buffer
- Assay type: biochemical
- run.parameters: USP8 FL 75 nM, Ub-Rho 0.1 μM, L-cysteine buffer; read-out: USP8FL inhbition IC50 [μM] (CI: Confidence Interval)
recorded.endpoint: IC50 (µM)

{"columns": ["molecule", "experimental.target", "value.operator", "val"],
 "data": [
  ["Cc1cc(C(C#N)c2ccc(Cl)cc2)c(Cl)cc1NC(=O)c1cc(I)cc(I)c1O (stereo not drawn) [Closantel, reference compound]", "Full length USP8 (USP8FL) (Homo sapiens)", "=", 12],
  ["O=C(NCc1cccc(OCc2ccccn2)c1)c1csc(Br)c1", "Full length USP8 (USP8FL) (Homo sapiens)", ">", 40],
  ["O=C(Nc1ccc(Cl)cc1Cl)c1cc(I)cc(I)c1O", "Full length USP8 (USP8FL) (Homo sapiens)", "=", 4.34],
  ["O=C(Nc1ccc(Cl)cc1)c1cc(I)cc(I)c1O", "Full length USP8 (USP8FL) (Homo sapiens)", "=", 11.9],
  ["O=C(CSc1ccccc1F)Nc1cccc(OCc2ccccn2)c1", "Full length USP8 (USP8FL) (Homo sapiens)", ">", 40],
  ["CC(=O)Oc1c(I)cc(I)cc1C(=O)Nc1ccc(Cl)cc1 [Clioxanide, reference compound]", "Full length USP8 (USP8FL) (Homo sapiens)", "=", 33.2]
]}
